Source of measurements: patent US20220193132A1

Quick reference for ELISA absorbance 405 nm among some binders
target: T1, recombinant human wild type EGFR protein (extracellular domain), denatured (human, UniProt P00533 25-645); assay: ELISA Exp 2, purified mAb 1 ug/ml;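 note: ELISA of purified mAb binding to plate-coated antigen, native or heat/DTT-denatured, with pNPP substrate developed for 30 min and incubations at room temperature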
T1 construct: Same protein as m23 after 95 C for 5 min in PBS with 40 mM DTT (denatured, reduced); also called wt EGFR Denatured
Your answer is read as A405, so omit the unit and give the number.

Past entries and their recorded results:
binder	result
F266-11C8 (antibody, V domains shown, Mouse hybridoma mAb; also called 11H5 (11C8)) VH: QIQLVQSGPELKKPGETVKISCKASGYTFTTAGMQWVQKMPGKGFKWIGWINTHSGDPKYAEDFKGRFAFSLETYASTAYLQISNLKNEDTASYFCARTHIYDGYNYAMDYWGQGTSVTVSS VL: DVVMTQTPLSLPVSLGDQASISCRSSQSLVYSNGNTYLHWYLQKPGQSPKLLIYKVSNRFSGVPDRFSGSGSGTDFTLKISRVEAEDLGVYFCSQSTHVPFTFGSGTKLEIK	-0.001
F265-9C9 (antibody, V domains shown, Mouse hybridoma mAb) VH: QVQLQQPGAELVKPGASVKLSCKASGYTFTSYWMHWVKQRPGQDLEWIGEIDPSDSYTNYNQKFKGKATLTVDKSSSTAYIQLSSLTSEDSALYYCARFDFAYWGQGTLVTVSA VL: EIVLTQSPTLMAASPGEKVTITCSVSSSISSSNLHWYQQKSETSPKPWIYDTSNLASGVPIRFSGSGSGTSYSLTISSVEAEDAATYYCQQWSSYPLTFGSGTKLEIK	0.003
F266-11B1 (antibody, V domains shown, Mouse hybridoma mAb) VH: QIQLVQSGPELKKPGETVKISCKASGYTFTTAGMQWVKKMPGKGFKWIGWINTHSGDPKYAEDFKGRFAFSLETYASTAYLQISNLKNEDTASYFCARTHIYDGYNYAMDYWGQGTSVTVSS VL: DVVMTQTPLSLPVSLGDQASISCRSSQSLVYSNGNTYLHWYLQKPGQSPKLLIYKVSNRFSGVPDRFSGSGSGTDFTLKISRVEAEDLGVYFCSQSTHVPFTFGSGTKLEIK	0.004
F263-4E11 (antibody, V domains shown, Mouse hybridoma mAb) VH: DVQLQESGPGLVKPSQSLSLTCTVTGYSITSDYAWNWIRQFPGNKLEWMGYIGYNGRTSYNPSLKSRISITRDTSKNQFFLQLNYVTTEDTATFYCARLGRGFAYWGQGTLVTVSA VL: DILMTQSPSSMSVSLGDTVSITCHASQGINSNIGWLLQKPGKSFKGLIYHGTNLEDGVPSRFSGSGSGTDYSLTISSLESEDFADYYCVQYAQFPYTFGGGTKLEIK	0.001
F266-11H3 (antibody, V domains shown, Mouse hybridoma mAb) VH: QIQLVQSGPELKKPGETVKISCKASGYTFTTAGMQWVQKMPGKGFKWIGWINTHSGDPKYAEDFKGRFAFSLETYASTAYLQISNLKNEDTATYFCARTHIYDGYNYAMDYWGQGTSVTVSS VL: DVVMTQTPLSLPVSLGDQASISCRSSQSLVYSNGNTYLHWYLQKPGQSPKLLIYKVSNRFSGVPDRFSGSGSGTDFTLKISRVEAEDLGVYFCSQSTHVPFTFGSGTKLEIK	0

Give the measured ELISA absorbance 405 nm of F263-4B3 (antibody, V domains shown, Mouse hybridoma mAb) VH: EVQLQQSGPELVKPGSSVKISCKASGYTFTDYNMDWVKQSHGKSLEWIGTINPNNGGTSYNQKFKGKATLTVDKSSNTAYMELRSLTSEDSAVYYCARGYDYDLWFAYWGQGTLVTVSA VL: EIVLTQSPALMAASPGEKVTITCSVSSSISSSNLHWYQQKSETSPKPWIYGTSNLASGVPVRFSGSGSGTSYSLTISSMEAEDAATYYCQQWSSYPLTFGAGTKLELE . 0.003

Given the binder F263-5D8 (antibody, V domains shown, Mouse hybridoma mAb) VH: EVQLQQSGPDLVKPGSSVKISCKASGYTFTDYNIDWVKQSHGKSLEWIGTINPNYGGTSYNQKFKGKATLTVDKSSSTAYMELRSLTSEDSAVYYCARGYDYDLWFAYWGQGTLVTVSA VL: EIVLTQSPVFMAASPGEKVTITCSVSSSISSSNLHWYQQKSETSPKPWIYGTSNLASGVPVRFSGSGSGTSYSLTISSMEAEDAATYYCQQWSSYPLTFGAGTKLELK , what is its reported ELISA absorbance 405 nm? 0
